molecular target: Human GPR120 (Homo sapiens, UniProt Q5NUL3); construct: Ga16 (promiscuous G protein) fusion partner; expressed in transfected cells; assay: FLIPR assay: agonist-induced calcium mobilization in HEK293-GPR120-Ga16 cells; assay type: cell-based; settings: GPR120 activation, calcium mobilization, HEK293-GPR120-Ga16 cells; read-out: EC50 Range
Sequence (Q5NUL3 with tags, fused parts or gaps): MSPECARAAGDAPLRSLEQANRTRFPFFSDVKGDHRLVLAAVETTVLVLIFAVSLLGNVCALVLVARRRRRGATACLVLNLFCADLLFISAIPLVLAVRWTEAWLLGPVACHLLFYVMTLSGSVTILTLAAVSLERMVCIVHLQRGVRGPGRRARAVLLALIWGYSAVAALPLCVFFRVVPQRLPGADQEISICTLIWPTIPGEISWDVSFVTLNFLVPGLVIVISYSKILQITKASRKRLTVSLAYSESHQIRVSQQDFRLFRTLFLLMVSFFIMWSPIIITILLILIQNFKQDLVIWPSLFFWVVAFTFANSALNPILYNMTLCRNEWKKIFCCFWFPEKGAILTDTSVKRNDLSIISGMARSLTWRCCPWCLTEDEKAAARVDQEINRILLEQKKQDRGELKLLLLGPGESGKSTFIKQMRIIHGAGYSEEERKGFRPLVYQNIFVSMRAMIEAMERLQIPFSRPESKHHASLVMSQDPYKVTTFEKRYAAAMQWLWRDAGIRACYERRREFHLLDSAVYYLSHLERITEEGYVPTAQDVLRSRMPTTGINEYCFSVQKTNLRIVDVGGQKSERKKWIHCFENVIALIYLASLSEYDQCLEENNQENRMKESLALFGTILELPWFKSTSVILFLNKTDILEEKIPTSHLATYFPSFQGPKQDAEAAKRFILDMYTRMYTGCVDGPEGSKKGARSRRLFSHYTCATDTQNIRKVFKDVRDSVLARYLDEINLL
measureName: EC50

[
  {
    "compound": "CCn1c(-c2ccccc2)cs/c1=N\\c1ccc(-c2nn[nH]n2)cc1",
    "measuredValue": "100 to 250 nM"
  },
  {
    "compound": "O=C(O)c1cccc(-n2cc(-c3ccc(F)cc3F)nn2)c1",
    "measuredValue": "250 to 500 nM"
  },
  {
    "compound": "CCn1c(-c2cccc(Cl)c2Cl)cs/c1=N\\c1ccc(C(=O)O)cc1",
    "measuredValue": "100 to 250 nM"
  },
  {
    "compound": "CCn1c(-c2ccccc2)cs/c1=N\\c1ccc(C(=O)O)c(F)c1F",
    "measuredValue": "250 to 500 nM"
  },
  {
    "compound": "CCn1c(-c2cccc(F)c2)cs/c1=N\\c1ccc(S(=O)(=O)O)cc1",
    "measuredValue": "250 to 500 nM"
  }
]

Entry "CCn1c(-c2c(Cl)cccc2Cl)cs/c1=N\c1ccc(C(=O)O)cc1" under Human GPR120 (Homo sapiens, UniProt Q5NUL3) had EC50 of 100 to 250 nM

The value of EC50 recorded for "CCn1c(-c2ccccc2)c(C)s/c1=N\c1ccc(S(=O)(=O)O)cc1" when tested on Human GPR120 (Homo sapiens, UniProt Q5NUL3) reads 500 to 1000 nM

Record "CCn1c(-c2cccc(OCCOC)c2)cs/c1=N\c1ccc(C(=O)O)cc1" / Human GPR120 (Homo sapiens, UniProt Q5NUL3), EC50 recorded as 100 to 250 nM

Record "CCn1c(-c2ccccc2Cl)cs/c1=N\c1ccc(S(=O)(=O)O)cc1" / Human GPR120 (Homo sapiens, UniProt Q5NUL3), EC50 recorded as 100 to 250 nM
